Where these numbers come from: the supplement of paper PMC13380429

system: Vero E6; test: cell viability relative to DMSO; higher = less toxic; settings: 72 h; 1000 nM
Hi there, I'd appreciate the recorded cell viability for every entry that follows.
Numbers only, in %.

Below are some molecules; for each one, tell me its cell viability.
1. CCCCC1(COC(=O)CCC(=O)O)C(=O)N(c2ccccc2)N(c2ccccc2)C1=O
2. CC(=O)/N=c1/sc(S(N)(=O)=O)nn1C [methazolamide]
3. CCCCCCCC/C=C\CCCCCCCC(=O)N[C@@H](CO)Cc1ccc(O)cc1

Response:
92.4
98.4
93.7

// each molecule listed below needs its cell viability
1. N=C(N)c1cc2ccc(OC(=O)c3cccs3)cc2s1
2. COC(=O)[C@H]1[C@H]2C[C@@H]3c4[nH]c5cc(OC)ccc5c4CCN3C[C@H]2C[C@@H](OC(=O)c2cc(OC)c(OC)c(OC)c2)[C@@H]1OC

Response:
[98.2, 104]

Hey, quick one: what's cell viability for each of these?
1. COc1cc(N2CCC(O)CC2)ccc1Nc1cc(Nc2ccccc2S(=O)(=O)C(C)C)c2cc[nH]c2n1
2. Cc1sc2c(c1C)C(c1ccc(Cl)cc1)=N[C@@H](CC(=O)Nc1ccc(OCCOCCOCCOCCNc3cccc4c3C(=O)N(C3CCC(=O)NC3=O)C4=O)cc1)c1nnc(C)n1-2 (some centres not stated)

Response:
1: 98.9; 2: 76.3

====

system: Calu-3; experiment: cell viability relative to DMSO; higher = less toxic; conditions: 72 h; 1 nM
Parameter Measured: cell viability (%)
Numbers only, in %.

COc1ccc(CCN2CCN(CCCc3ccccc3)CC2)cc1OC :: 95.9
Cc1cccc(Nc2ccncc2S(=O)(=O)NC(=O)NC(C)C)c1 [torasemide] :: 100
O=C1NC(=O)c2cc(Nc3ccc(F)cc3)c(Nc3ccc(F)cc3)cc21 :: 106
Oc1cc2c(cc1O)CN(C(=S)NCCc1ccc(Cl)cc1)CCC2 [capsazepine] :: 107

Now look at this entry.
Lookup result for CNC(=O)N(C)N=O ; measured cell viability: 111

====

test system: Caco-2; experiment: cell viability relative to DMSO; higher = less toxic; details: 72 h; 100 nM
Parameter Measured: cell viability (%)
Give bare numbers, in %.

Nc1ccc(S(=O)(=O)Nc2ccc(Cl)nn2)cc1 :: 94.8
N=C(N)c1cc2ccc(OC(=O)c3cccs3)cc2s1 :: 95.5
NC(=O)c1cnccn1 [pyrazinamide] :: 92.8

State recorded cell viability for all listed compounds.
1. CCOC(=O)c1ccc(N)cc1
2. C=CCSCC1Nc2cc(Cl)c(S(N)(=O)=O)cc2S(=O)(=O)N1 (centres undefined) [althiazide]
3. CC(=O)N[C@@H](CC(=O)O)C(=O)N[C@@H](CCC(=O)O)C(=O)O
4. Cc1onc(-c2ccccc2Cl)c1C(=O)N[C@@H]1C(=O)N2[C@@H]1SC(C)(C)[C@@H]2C(=O)O
5. COC(=O)C(Cc1ccc(OCCn2c(=O)sc3cc(C(=O)c4ccccc4)ccc32)cc1)C(=O)OC

Response:
101
93
101
98.5
101

// sample O=C(Cc1ccccc1)Nc1nc2ccc(Cl)cc2c2nc(-c3ccco3)nn12 , its cell viability was 99.4

====

tested on: HepG2; experiment: drug sensitivity score (DSS) for viability; higher = more toxic; extreme values may be limits of the assay; conditions: 72 h
Record form. Attribute: drug sensitivity score. Fill in for each entry.
Give bare numbers.

// worked examples, drug sensitivity score included
OCc1ccc(-c2ccc(-c3ccc(CO)s3)o2)s1 [RITA] :: 6.5
C#C[C@]1(O)CC[C@H]2[C@@H]3CCC4=CC(=O)CC[C@]4(C)[C@H]3CC[C@@]21C [ethisterone] :: 0
CN[C@@H]1[C@@H](O)[C@@H](O[C@@H]2[C@@H](O)[C@H](O[C@H]3O[C@H](CN)[C@@H](O)[C@H](O)[C@H]3O)[C@@H](N)C[C@H]2NC(=O)[C@@H](O)CN)OC[C@]1(C)O [isepamicin] :: 0
O=C1NC(=O)c2cc(Nc3ccc(F)cc3)c(Nc3ccc(F)cc3)cc21 :: 4
OB1OCc2cc(F)ccc21 [tavaborole] :: 0
CNCCCN1c2ccccc2CCc2ccccc21 [desipramine] :: 0
CN1CCN(c2cc3c(cc2F)c(=O)c(C(=O)O)cn3-c2ccc(F)cc2)CC1 [difloxacin] :: 0
CC(C[N+](C)(C)C)OC(N)=O (configuration not stated) [bethanechol] :: 0

The following compounds each have a reported value; give each one's drug sensitivity score.
1. C[C@@H](NC(=O)CCc1nc2ccccc2c(=O)[nH]1)c1ccccc1 [ME0328]
2. CC(=O)Nc1ccc(C(=O)Nc2ccccc2N)cc1 [tacedinaline]

Response:
0
6.3

Report drug sensitivity score for each item below.
1. CC(=O)/N=c1/sc(S(N)(=O)=O)nn1C [methazolamide]
2. NC(=O)Nc1cc(-c2cccc(F)c2)sc1C(=O)N[C@H]1CCCNC1 [AZD7762]
3. C[C@@H]1CN(c2c(F)c(F)c3c(=O)c(C(=O)O)cn(C4CC4)c3c2F)C[C@H](C)N1 [orbifloxacin]
4. NC(=O)NCCN1CCN(c2cccc(C(F)(F)F)c2)CC1 [fluprazine]
5. C1=N/C2=N/c3ccc(OCCN4CCCC4)c(c3)COC/C=C/COCc3cccc(c3)C(=C1)N2 [pacritinib]
6. O[C@H]1[C@H](O)[C@@H](O)[C@H](O)[C@@H](O)[C@H]1O [inositol]
7. CC(C)c1nc(CN(C)C(=O)N[C@H](C(=O)N[C@@H](Cc2ccccc2)C[C@H](O)[C@H](Cc2ccccc2)NC(=O)OCc2cncs2)C(C)C)cs1 [ritonavir]

Response:
[0, 12.7, 0, 0, 6.7, 0, 0]

For every listed record, write down its drug sensitivity score.
1. Cc1nc2ccc(NC(=O)Nc3ccnc4cccnc34)cc2o1
2. Cc1cc(C)c(NC(=O)N(Cc2ccc3c(c2)Cc2ccccc2-3)C2CCCCCC2)c(C)c1 [YM-750]
3. Cc1nccn1CC1CCc2c(c3ccccc3n2C)C1=O (configuration not stated) [ondansetron]
4. NCCCCN(Cc1nc2ccccc2[nH]1)[C@H]1CCCc2cccnc21
5. Nc1ncnc2c1ncn2[C@@H]1O[C@H](CO)C[C@H]1O [cordycepin]
6. CN1CCN(c2ccc(C(=O)Nc3n[nH]c4ccc(Cc5cc(F)cc(F)c5)cc34)c(NC3CCOCC3)c2)CC1 [entrectinib]
7. CCn1c(=O)c2c(nc(/C=C/c3ccc(OC)c(OC)c3)n2C)n(CC)c1=O [istradefylline]
8. COC(=O)C1=C(C)NC(C)=C(C(=O)OC)C1c1ccccc1[N+](=O)[O-] [nifedipine]

Response:
1: 0.8; 2: 3.2; 3: 0; 4: 0.2; 5: 0; 6: 9.7; 7: 0; 8: 0

Items follow; give drug sensitivity score for each.
1. CC(C)(C)NC[C@H](O)COc1nsnc1N1CCOCC1 [timolol]
2. Cc1cccc(Nc2nc(-c3ccncc3)cs2)c1
3. [O-][n+]1ccccc1[S-].[O-][n+]1ccccc1[S-].[Zn+2] [pyrithione-zinc]
4. Cc1[nH]c2ccccc2c1CCNCc1ccc(/C=C/C(=O)NO)cc1 [panobinostat]
5. CC(C)c1ccc2c(c1)CC[C@H]1[C@](C)(CN)CCC[C@]21C [lylamine]
6. C[C@@H](c1nc(-c2ccc(C#N)cc2)cs1)[C@](O)(Cn1cncn1)c1ccc(F)cc1F [ravuconazole]
7. Nc1nc(Nc2ccccc2)nc2c1ncn2[C@@H]1O[C@H](CO)[C@@H](O)[C@H]1O [CV-1808]
8. NC(=O)Cc1cccc(C(=O)c2ccccc2)c1N [nepafenac]

Response:
1. 0
2. 3.7
3. 14.1
4. 26.6
5. 4.9
6. 2.7
7. 0
8. 0
